Quick reference: Actual measured growth inhibition ratio (%) of the listed items.
System: Trametes versicolor
assay.explanation: Agar plate colony growth inhibition test on Trametes versicolor, single compounds and mixtures with triazoles (Colby)
Type: cell-based
experimental.conditions: single compound 0.2 ppm, potato dextrose agar, 25° C., seventh day
Return type: number; implicit unit %.

Guide cases for Actual measured growth inhibition ratio (%), answers given:
# compound, unit.abbrev, measurement
measured = [
    ("FC(F)C(F)(F)OCC(Cn1cncn1)c1ccc(Cl)cc1Cl (centres unmarked)", "%", 25),
    ("Cc1cc(C(=O)Nc2cccc(OC(C)C)c2)c(C(F)(F)F)o1", "%", 44),
    ("Fc1ccc([C@]2(Cn3cncn3)O[C@H]2c2ccccc2Cl)cc1 (racemic)", "%", 24),
    ("CC(C1CC1)C(O)(Cn1cncn1)c1ccc(Cl)cc1 (centres unmarked)", "%", 33),
]

For the compound Cc1cc(C(=O)Nc2cccc(C(C)C)c2)c(C(F)(F)F)o1 , what Actual measured growth inhibition ratio (%) is on record?
49

Origin of the recorded values: patent US8785662B2
